system: HEK-293T; test: Multiplex assay against HEK293T; assay type: toxicity, cell-based; details: human, 12 h, 10 µM, compound concentration 10 uM, replicate 1
OUTCOME MEASURE: Population Mitochondria Different-Phenotype (%)
Supply the numeric figure in %, leaving out any unit text.

Sample answers from the record:
COMPOUND: CSc1ccccc1N1CCN(CCCCCC(=O)NC2CCCc3ccccc32)CC1.Cl (stereo not drawn)
STUDY SYSTEM: HEK-293T
READING UNIT: %
ASSAY RESULT: 97
--
COMPOUND: Cc1ccc(/C(=C\CN2CCCC2)c2ccccn2)cc1
STUDY SYSTEM: HEK-293T
READING UNIT: %
ASSAY RESULT: 67
--
COMPOUND: CN1CCN2c3ncccc3Cc3ccccc3C2C1 (stereo not drawn)
STUDY SYSTEM: HEK-293T
READING UNIT: %
ASSAY RESULT: 49
--
COMPOUND: c1cc(OCCCN2CCCCC2)ccc1CN1CCCCC1
STUDY SYSTEM: HEK-293T
READING UNIT: %
ASSAY RESULT: 63
--
COMPOUND: CC[C@H]1OC(=O)[C@H](C)[C@@H](O[C@H]2C[C@@](C)(OC)[C@@H](O)[C@H](C)O2)[C@H](C)[C@@H](O[C@@H]2O[C@H](C)C[C@H](N(C)C)[C@H]2O)[C@@]2(C)CC(C)=C(O2)[C@H](C)[C@@H](O)[C@]1(C)O
STUDY SYSTEM: HEK-293T
READING UNIT: %
ASSAY RESULT: 87

Look up Population Mitochondria Different-Phenotype (%) with HEK-293T for this compound: CCCN1CCC[C@@H]2Cc3n[nH]cc3C[C@H]21.Cl [QUINPIROLE HYDROCHLORIDE]
53

And the next one, CCOc1c2c(c(OCC)c3ncccc13)CN(c1ccc(CS(=O)(=O)NC(=O)Cc3ccccc3OC)cc1C)C2=O ?
49

Similarly, N#Cc1c(N)nc(SCc2csc(-c3ccc(Cl)cc3)n2)c(C#N)c1-c1ccc(OCCO)cc1 ?
82

Data provenance is ChEMBL document CHEMBL5058577.
